// reported IC50 for each item listed
ASSAYED_SYSTEM: Mer (Homo sapiens)
Sequence (Q12866 21-999): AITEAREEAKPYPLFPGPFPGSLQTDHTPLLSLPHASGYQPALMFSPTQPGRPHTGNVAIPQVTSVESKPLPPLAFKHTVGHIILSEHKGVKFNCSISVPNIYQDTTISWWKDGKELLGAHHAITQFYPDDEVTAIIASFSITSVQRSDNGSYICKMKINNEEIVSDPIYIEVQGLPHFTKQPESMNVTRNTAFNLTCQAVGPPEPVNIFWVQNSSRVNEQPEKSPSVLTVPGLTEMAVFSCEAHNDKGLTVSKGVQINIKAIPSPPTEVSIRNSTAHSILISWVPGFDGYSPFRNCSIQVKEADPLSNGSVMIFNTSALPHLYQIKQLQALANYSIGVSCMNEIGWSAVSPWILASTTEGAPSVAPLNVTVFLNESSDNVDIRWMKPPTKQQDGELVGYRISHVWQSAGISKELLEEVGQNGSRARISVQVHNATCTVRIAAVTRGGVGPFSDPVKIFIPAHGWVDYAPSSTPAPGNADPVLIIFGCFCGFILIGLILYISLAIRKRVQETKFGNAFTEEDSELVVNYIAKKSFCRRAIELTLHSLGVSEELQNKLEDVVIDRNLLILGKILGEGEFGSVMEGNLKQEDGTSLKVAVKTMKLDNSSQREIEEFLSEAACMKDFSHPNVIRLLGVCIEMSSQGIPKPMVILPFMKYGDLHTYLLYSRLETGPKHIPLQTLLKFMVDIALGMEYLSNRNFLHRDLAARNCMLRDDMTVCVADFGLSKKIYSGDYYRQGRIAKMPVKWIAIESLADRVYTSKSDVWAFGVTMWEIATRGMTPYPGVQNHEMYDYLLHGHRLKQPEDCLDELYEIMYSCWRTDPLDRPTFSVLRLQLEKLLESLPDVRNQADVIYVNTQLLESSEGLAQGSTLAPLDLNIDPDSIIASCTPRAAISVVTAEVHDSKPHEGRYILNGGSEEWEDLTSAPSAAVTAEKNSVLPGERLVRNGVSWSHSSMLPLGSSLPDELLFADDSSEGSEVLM
MEASUREMENT_NOTES: Mer autophosphorylation ELISA in transient transfected 293A cells
ASSAY_SETUP: cellular activity; MERTK-transfected 293A cells, phospho-Mer ELISA

COMPOUND	ASSAYED_SYSTEM	IC50
O=C(Nc1ccc(F)cc1)C1(C(=O)Nc2ccc(Oc3ccnc4cc(-c5cnc[nH]5)ccc34)cc2)CC1 [Compound 72]	Mer (Homo sapiens)	≤ 10 nM

Task: # get_value(readout='IC50', item= Cc1cc2c(Oc3ccc(NC(=O)C4(C(=O)Nc5ccc(F)cc5)CC4)cc3)ccnc2cc1-c1cc[nH]n1 [Compound 107] )
Result: 10 to 100 nM

Task: Form field: reported IC50 of Cc1cc2c(Oc3c(F)cc(NC(=O)C4(C(=O)Nc5ccc(F)cc5)CC4)c(F)c3F)ccnc2cc1-c1cnn(C)c1 [Compound 110]
Result: 10 to 100 nM

Task: Please look up its IC50: O=C(Nc1ccc(F)cc1)C1(C(=O)Nc2ccc(Oc3ccnc4cc(-c5cnn(CC(F)(F)F)c5)ccc34)cc2)CC1 [Compound 16]
Result: 10 to 100 nM

---

ASSAYED_SYSTEM: Met (Homo sapiens, UniProt P08581)
Sequence (P08581 25-1390): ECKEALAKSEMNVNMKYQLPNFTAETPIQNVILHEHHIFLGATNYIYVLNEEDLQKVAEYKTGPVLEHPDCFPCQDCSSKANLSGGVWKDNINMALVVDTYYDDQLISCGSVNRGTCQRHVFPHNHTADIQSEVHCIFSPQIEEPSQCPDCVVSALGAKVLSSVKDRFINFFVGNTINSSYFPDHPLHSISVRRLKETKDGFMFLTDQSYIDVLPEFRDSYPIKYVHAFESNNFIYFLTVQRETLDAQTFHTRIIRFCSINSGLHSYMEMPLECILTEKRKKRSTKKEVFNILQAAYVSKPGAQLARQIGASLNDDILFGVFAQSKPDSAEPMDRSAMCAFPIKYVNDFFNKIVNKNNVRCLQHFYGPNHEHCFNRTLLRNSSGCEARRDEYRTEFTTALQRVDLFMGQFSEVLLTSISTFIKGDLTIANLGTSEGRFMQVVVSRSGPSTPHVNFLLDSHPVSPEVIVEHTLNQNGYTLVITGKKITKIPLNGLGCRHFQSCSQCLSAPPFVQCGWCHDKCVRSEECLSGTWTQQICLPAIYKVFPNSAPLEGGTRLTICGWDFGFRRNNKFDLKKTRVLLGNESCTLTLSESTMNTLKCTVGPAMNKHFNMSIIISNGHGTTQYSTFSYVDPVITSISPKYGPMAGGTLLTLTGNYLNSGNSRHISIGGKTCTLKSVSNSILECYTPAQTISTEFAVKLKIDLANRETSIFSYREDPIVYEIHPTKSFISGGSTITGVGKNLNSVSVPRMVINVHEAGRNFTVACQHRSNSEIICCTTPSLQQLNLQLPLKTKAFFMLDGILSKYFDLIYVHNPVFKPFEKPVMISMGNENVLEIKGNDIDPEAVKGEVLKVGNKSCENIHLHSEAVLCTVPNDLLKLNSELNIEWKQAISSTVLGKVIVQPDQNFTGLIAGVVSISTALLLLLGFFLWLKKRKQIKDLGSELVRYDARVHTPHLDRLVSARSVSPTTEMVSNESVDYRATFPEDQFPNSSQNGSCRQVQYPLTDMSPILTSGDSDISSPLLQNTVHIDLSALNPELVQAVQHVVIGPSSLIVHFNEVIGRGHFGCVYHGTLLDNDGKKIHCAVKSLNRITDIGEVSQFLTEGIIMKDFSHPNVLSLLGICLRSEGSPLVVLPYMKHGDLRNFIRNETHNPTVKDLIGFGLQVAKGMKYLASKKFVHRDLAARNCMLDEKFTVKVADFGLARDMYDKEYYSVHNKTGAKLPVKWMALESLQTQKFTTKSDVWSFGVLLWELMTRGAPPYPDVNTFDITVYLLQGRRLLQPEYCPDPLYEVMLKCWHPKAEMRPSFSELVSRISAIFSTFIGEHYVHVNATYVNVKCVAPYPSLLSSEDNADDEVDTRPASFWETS
MEASUREMENT_NOTES: Met autophosphorylation ELISA in PC-3 cells
Format: cell-based
Set-up: endogenous in cells; host or cells: PC-3 prostate cancer cells (ATCC #CRL-1435)
ASSAY_SETUP: cellular activity, HGF-stimulated, phospho-Met ELISA, read-out: c-Met IC50
# maps each entry to its IC50

In the examples that follow, each entry is paired with its recorded IC50.
MOLECULE	MEASUREMENT
CC(C)Oc1ccc(-c2ccc3c(Oc4ccc(NC(=O)C5(C(=O)Nc6ccc(F)cc6)CC5)cc4)ccnc3c2)cn1	100 to 300 nM
O=C(Nc1ccc(F)cc1)C1(C(=O)Nc2ccc(Oc3ccnc4cc(-c5ccn[nH]5)ccc34)cc2)CC1	10 to 100 nM
Cc1cc2c(Oc3ccc(NC(=O)C4(C(=O)Nc5ccc(F)cc5)CC4)cc3)ccnc2cc1-c1ccn(C)n1	100 to 300 nM
Cc1cc2c(Oc3ccc(NC(=O)C4(C(=O)Nc5ccc(F)cc5)CC4)cc3)ccnc2cc1-c1cnn(C)c1	≤ 10 nM
O=C(Nc1ccc(F)cc1)C1(C(=O)Nc2ccc(Oc3ccnc4cc(-c5cnc6[nH]ncc6c5)ccc34)cc2)CC1	10 to 100 nM

Task: Given the entry CN1CCC(n2cc(-c3ccc4c(Oc5ccc(NC(=O)C6(C(=O)Nc7ccc(F)cc7)CC6)cc5)ccnc4c3)cn2)CC1 , what IC50 was observed with Met (Homo sapiens, UniProt P08581)?
Result: 10 to 100 nM

Task: What value of IC50 on Met (Homo sapiens, UniProt P08581) does O=C(Nc1ccc(F)cc1)C1(C(=O)Nc2ccc(Oc3ccnc4cc(-c5cnn(CCO)c5)ccc34)cc2)CC1 have?
Result: ≤ 10 nM

Task: Recall the recorded IC50 for CCn1cc(-c2ccc3c(Oc4ccc(NC(=O)C5(C(=O)Nc6ccc(F)cc6)CC5)cc4)ccnc3c2)cn1 with Met (Homo sapiens, UniProt P08581) and state it.
Result: 10 to 100 nM

Task: State its IC50 on Met (Homo sapiens, UniProt P08581): CC(C)n1cc(-c2ccc3c(Oc4ccc(NC(=O)C5(C(=O)Nc6ccc(F)cc6)CC5)cc4)ccnc3c2)cn1
Result: 10 to 100 nM

---

ASSAYED_SYSTEM: Met (Homo sapiens, UniProt P08581)
MEASUREMENT_NOTES: Met autophosphorylation ELISA in PC-3 cells
Format: cell-based
Design: endogenous in cells; host or cells: PC-3 prostate cancer cells (ATCC #CRL-1435)
ASSAY_SETUP: cellular activity, HGF-stimulated, phospho-Met ELISA, read-out: c-Met IC50
READOUT_NAME: IC50

Task: State the recorded IC50 for this entry: O=C(Nc1ccc(F)cc1)C1(C(=O)Nc2ccc(Oc3ccnc4cc(-c5cnn(C(F)F)c5)ccc34)cc2)CC1
Result: 10 to 100 nM

Task: Which IC50 reading was recorded for the molecule O=C(Nc1ccc(F)cc1)C1(C(=O)Nc2ccc(Oc3ccnc4cc(-c5ccc[n+]([O-])c5)ccc34)cc2)CC1 ?
Result: 10 to 100 nM

---

Items are presented alongside their recorded pIC50.
ASSAYED_SYSTEM: Met (Homo sapiens, UniProt P08581)
MEASUREMENT_NOTES: Met autophosphorylation ELISA in PC-3 cells
Format: cell-based
Set-up: endogenous in cells; host or cells: PC-3 prostate cancer cells (ATCC #CRL-1435)
ASSAY_SETUP: cellular activity, HGF-stimulated, phospho-Met ELISA, read-out: c-Met IC50
pIC50: −log10 of the molar value.

Known results for molecules:
MOLECULE	pIC50
O=C(Nc1ccc(F)cc1)C1(C(=O)Nc2ccc(Oc3ccnc4cc(C5CCOC5)ccc34)cc2)CC1 (single isomer, unassigned) [Compound 89]	7.00 to 8.00
COc1cc2c(Oc3ccc(NC(=O)C4(C(=O)Nc5ccc(F)cc5)CC4)cc3)ccnc2cc1-c1cnn(C)c1 [Compound 76]	7.00 to 8.00
O=C(Nc1ccc(F)cc1)C1(C(=O)Nc2ccc(Oc3ccnc4cc(-c5ccc(C6CC6)nc5)ccc34)cc2)CC1 [Compound 43]	6.52 to 7.00
O=C(Nc1ccc(F)cc1)C1(C(=O)Nc2ccc(Oc3ccnc4cc(C5CCNC5)ccc34)cc2)CC1 (stereo not shown) [Compound 83]	7.00 to 8.00
O=C(Nc1ccc(F)cc1)C1(C(=O)Nc2ccc(Oc3ccnc4cc(-c5cnc[nH]5)ccc34)cc2)CC1 [Compound 72]	≥ 8.00
O=C(Nc1ccc(F)cc1)C1(C(=O)Nc2ccc(Oc3ccnc4cc(-c5cn[nH]c5)ccc34)cc2)CC1 [Compound 67]	≥ 8.00

Task: If you can, please state the reported pIC50 value of O=C(Nc1ccc(F)cc1)C1(C(=O)Nc2ccc(Oc3ccnc4cc(-c5cnoc5)ccc34)cc2)CC1 [Compound 57] .
Result: 7.00 to 8.00

Task: Name the recorded pIC50 for Cc1cc(F)cc(C)c1NC(=O)C1(C(=O)Nc2ccc(Oc3ccnc4cc(-c5cnn(C)c5)ccc34)cc2)CC1 [Compound 82] .
Result: 6.52 to 7.00

Task: Requested read-out: pIC50. Entry: O=C(Nc1ccc(F)cc1)C1(C(=O)Nc2ccc(Oc3ccnc4cc(-c5cnn(C(F)(F)F)c5)ccc34)cc2)CC1 [Compound 12]
Result: 7.00 to 8.00

Task: Query: pIC50; subject: Cn1cc(-c2ccc3c(Oc4ccc(NC(=O)C5(C(=O)Nc6ccc(F)cc6)CC5)cc4)ccnc3c2)cn1 [Compound 11]
Result: ≥ 8.00

Task: Which value of pIC50 has been reported for Cc1cc(-c2ccc3c(Oc4ccc(NC(=O)C5(C(=O)Nc6ccc(F)cc6)CC5)cc4)ccnc3c2)nn1C [Compound 101] in the records?
Result: 7.00 to 8.00

Task: Which pIC50 is listed for Cc1cc2c(Oc3c(F)cc(NC(=O)C4(C(=O)Nc5ccc(F)cc5)CC4)c(F)c3F)ccnc2cc1-c1cnn(C)c1 [Compound 110] ?
Result: 7.00 to 8.00

Task: Please report the recorded pIC50 for O=C(Nc1ccc(F)cc1)C1(C(=O)Nc2ccc(Oc3ccnc4cc(-c5cnc6[nH]ccc6c5)ccc34)cc2)CC1 [Compound 44] .
Result: 6.52 to 7.00

---

ASSAYED_SYSTEM: Met (Homo sapiens, UniProt P08581)
MEASUREMENT_NOTES: Met autophosphorylation ELISA in PC-3 cells
Type: cell-based
Parameters: endogenous in cells; host or cells: PC-3 prostate cancer cells (ATCC #CRL-1435)
ASSAY_SETUP: cellular activity, HGF-stimulated, phospho-Met ELISA, read-out: c-Met IC50
Description: PC-3 prostate cancer cells (ATCC #CRL-1435) were seeded at 4×10^4 cells/well onto 24-well plates (Greiner #662165), in DMEM (Thermo Fisher #11995-040) containing 10% FBS (Thermo Fisher #26140-079), 1% MEM NEAA (Thermo Fisher #11140-050), 1% GlutaMax (Thermo Fisher #35050-061), and 1% Penicillin Streptomycin (Thermo Fisher #15140-122). […] IC50 values were calculated by nonlinear regression analysis using a 4-parameter logistic curve fit in ActivityBase XE (IDBS).
READOUT_NAME: IC50

MOLECULE	ASSAYED_SYSTEM	IC50
CN(C(=O)C1(C(=O)Nc2ccc(Oc3ccnc4cc(-c5cnn(C(F)F)c5)ccc34)cc2)CC1)c1ccc(F)cc1 [Compound 126]	Met (Homo sapiens, UniProt P08581)	> 0.3 µM
O=C(Nc1ccc(F)cc1)C1(C(=O)Nc2ccc(Oc3ccnc4cc(-c5ccnc(C(F)(F)F)c5)ccc34)cc2)CC1 [Compound 36]	Met (Homo sapiens, UniProt P08581)	0.1 to 0.3 µM

Task: Recorded IC50 for O=C(Nc1ccc(F)cc1)C1(C(=O)Nc2ccc(Oc3ccnc4cc(-c5ccc(F)nc5)ccc34)cc2)CC1 [Compound 41] , please?
Result: 0.01 to 0.1 µM

Task: Which measured IC50 value corresponds to Cc1cc2c(Oc3cc(F)c(NC(=O)C4(C(=O)Nc5ccc(F)cc5)CC4)cc3F)ccnc2cc1-c1cnn(C)c1 [Compound 105] ?
Result: 0.01 to 0.1 µM

Task: Entry N#Cc1ccc(-c2ccc3c(Oc4ccc(NC(=O)C5(C(=O)Nc6ccc(F)cc6)CC5)cc4)ccnc3c2)cn1 [Compound 42] : reported IC50 = ?
Result: 0.01 to 0.1 µM

Source of measurements: patent US12503438B2
